measurement_notes: solvent given as SMILES
test_settings: in CCCCCC
Parameter threshold = 400 nm. Response is MET when absorption maximum meets or exceeds it, else NOT MET.

[[record]]
compound = "CCCCN1C(=O)C(=C/C=C/C=C2N(CCCC)c3ccccc3N2CCCC)C(=O)N(CCCC)C1=S"
label_class = "MET"

[[record]]
compound = "F[B-]1(F)OC(c2ccc(C(F)(F)F)cc2)=Cc2cc(Cl)nc[n+]21"
label_class = "NOT MET"

[[record]]
compound = "OCCSc1cccc2[n+]1[B-](F)(F)n1c(c3cccc4cccc1c43)=N2"
label_class = "MET"

[[record]]
compound = "O=C1Nc2ccccc2/C1=C/C(=O)c1ccc(O)cc1"
label_class = "NOT MET"

[[record]]
compound = "CCCCCCCCN1c2ccc(C#Cc3ccc(F)cc3)cc2Sc2cc(C=O)ccc21"
label_class = "NOT MET"

[[record]]
compound = "Cc1ccc(N(c2ccc(C)cc2)c2ccc(-c3ccc4c(c3)C(=O)c3ccccc3C4=O)cc2)cc1"
label_class = "MET"

[[record]]
compound = "CCC12C(=C3C(=C4c5ccc(-c6ccc(C)s6)cc5S(=O)(=O)C41CC)C(F)(F)C(F)(F)C3(F)F)c1ccc(-c3ccc(C)s3)cc1S2(=O)=O (centres undefined)"
label_class = "MET"

